These entries and their values trace back to patent US20160362487A1.

Molecular target: T1, human IL-33 (R&D Systems, #3625-IL-010/CF) (human, UniProt O95760 112-270)
T1 construct: Commercial recombinant protein; also called hIL-33; interleukin-33
T1 sequence (looked up): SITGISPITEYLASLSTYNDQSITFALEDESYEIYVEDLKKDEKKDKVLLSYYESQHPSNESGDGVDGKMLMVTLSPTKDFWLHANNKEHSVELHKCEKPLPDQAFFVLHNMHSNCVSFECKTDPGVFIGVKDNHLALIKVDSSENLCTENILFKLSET
Test: SPR 37C pH7.4, mAb captured
assay metric: t½ (min)
I only need the number, in min, no unit after it.

binder	t½ (min)
H1M9566N (antibody, mouse IgG1, V domains shown, Human variable domains, mouse IgG1 Fc (H1M)) VH: EVQLLESGGDLVQPGGSLRLSCAASGFTFSSYAMSWVRQAPGKGLEWVSVISGSGSSTDYADSVKGRFTISRDNSRDTLHLQMNSLRAEDTAVYYCAKTFYYFYGLDVWGQGTTVTVSS VL: DIQMTQSPSSLSASLRDRVTITCRASQGISNYLAWYQQKPGKVPKVLIYAASTLQSGVPSRFSGSGSGTVFTLTISSLQTEDVATYYCQKYSSAPFTFGPGTKVDIK	41

Noted for H4H9633P (antibody, human IgG4, V domains shown, Human IgG4 Fc (H4H)) VH: EVQLVESGGGLVQPGGSLRLSCAASGFTFSSYVMSWVRQAPGKGLEWVSSISGNGGSTNYADSVKGRFTISRDNSKNTLFLEMNSLRAEDTAVYYCAKSLGTTTTFLGFDYWGQGTLVTVSS VL: DIQMTQSPSSVSASVGDRVTITCRASQGISSWLAWYQQKPGKAPKLLIYAASSLQSGVPSRFSGSGSGTYFTLTISSLQPEDFATYYCQQANSFPLTFGGGTKVEIK : its t½ reads 17
